condition.info: siRNA; further: test system not given here
HELM strings list units from the 5' end as sugar, base in round brackets, then linkage (d deoxyribose, r ribose, m 2'-O-methyl, p phosphodiester). Strings are as the collection lists them, not checked against the first reports. ss, as = sense and antisense strand; [s4r] = 4'-thioribose

{"substance": "RNA1{r(C)p.r(G)p.r(U)p.r(A)p.r(C)p.r(G)p.r(C)p.r(G)p.r(G)p.r(A)p.r(A)p.r(U)p.r(A)p.r(C)p.r(U)p.r(U)p.r(C)p.r(G)p.r(A)p.r(T)p.r(T)}|RNA2{r(U)p.r(C)p.r(G)p.r(A)p.r(A)p.r(G)p.[s4r](U)p.[s4r](A)p.[s4r](U)p.[s4r](U)p.[s4r](C)p.[s4r](C)p.[s4r](G)p.r(C)p.r(G)p.r(U)p.r(A)p.r(C)p.r(G)p.r(T)p.r(T)}$$$RNA1{StrandType:ss}|RNA2{StrandType:as}$", "target mRNA knockdown, %": 36.5}
{"substance": "RNA1{r(A)p.r(G)p.r(A)p.r(U)p.r(G)p.r(U)p.r(U)p.r(C)p.r(U)p.r(C)p.r(G)p.r(U)p.r(A)p.r(A)p.r(G)p.r(G)p.r(A)p.r(C)p.r(G)p.r(T)p.r(T)}|RNA2{r(C)p.r(G)p.r(U)p.r(C)p.r(C)p.r(U)p.m(U)p.r(A)p.r(C)p.r(G)p.r(A)p.r(G)p.r(A)p.r(A)p.r(C)p.r(A)p.r(U)p.r(C)p.r(U)p.r(T)p.r(T)}$$$RNA1{StrandType:ss}|RNA2{StrandType:as}$", "target mRNA knockdown, %": 69}
{"substance": "RNA1{m(A)p.r(G)p.m(A)p.r(G)p.m(A)p.r(G)p.m(G)p.r(U)p.m(G)p.r(G)p.m(A)p.r(G)p.m(G)p.r(U)p.m(A)p.r(U)p.m(C)p.r(U)p.m(C)p.r(T)p.r(T)}|RNA2{r(G)p.r(A)p.r(G)p.r(A)p.r(U)p.r(A)p.r(C)p.r(C)p.r(U)p.r(C)p.r(C)p.m(A)p.r(C)p.r(C)p.r(U)p.m(C)p.r(U)p.m(C)p.r(U)p.r(T)p.r(T)}$$$RNA1{StrandType:ss}|RNA2{StrandType:as}$", "target mRNA knockdown, %": 67}
